B1: Pistol ribozyme (parent)
chain: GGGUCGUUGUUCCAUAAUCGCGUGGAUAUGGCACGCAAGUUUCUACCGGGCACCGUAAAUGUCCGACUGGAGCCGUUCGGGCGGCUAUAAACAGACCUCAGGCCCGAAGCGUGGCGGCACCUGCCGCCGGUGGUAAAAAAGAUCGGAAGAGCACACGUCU

variants of: B1; experiment: aptazyme ON/OFF ratio, guanine; higher = stronger switching; co-transcriptional cleavage with and without guanine
READOUT_KIND: aptazyme ON/OFF ratio
Just the number, please, no unit after it.

Value of aptazyme ON/OFF ratio reported for the variant U7A G9U C12A is 0.896
